System: Rhodanobacter sp. FW104-10B01
Conditions: medium / electron acceptor: 10B01 R2A/aerobic
PROPERTY LABEL: IC50 growth inhibition

# MOLECULE, IC50 growth inhibition
records = [
    ("O.O.[Ba+2].[Cl-].[Cl-] [Barium chloride dihydrate]", "> 5 mM"),
    ("O=[Si](O)O [Sodium metasilicate]", "< 0.244 mM"),
    ("O.O.O.O.[Cl][Mn][Cl] [Manganese (II) chloride tetrahydrate]", "> 5 mM"),
    ("[Na+].[O]=[V](=[O])[O-] [Sodium metavanadate]", "> 50 mM"),
]

Please look at the following molecule next.
Problem: Reported IC50 growth inhibition for [Cl][Fe]([Cl])[Cl] [Ferric chloride] : what is it?
Result: > 50 mM

* * *

Tested on: Pseudomonas fluorescens FW300-N2E2
Conditions: medium / electron acceptor: N2E2 Glucose/aerobic
Each record is given True if its reported IC50 growth inhibition is strictly below 300 mM. Records at or above 300 mM are given False.

# COMPOUND, EXPERIMENTAL TARGET, LABEL VALUE
data = [
    ("[F-].[Na+] [sodium fluoride]", "Pseudomonas fluorescens FW300-N2E2", "True"),
    ("[Cl][Ga]([Cl])[Cl] [Gallium(III)chloride]", "Pseudomonas fluorescens FW300-N2E2", "True"),
    ("[Cl][Pt]([Cl])([Cl])[Cl] [platinum (IV) chloride]", "Pseudomonas fluorescens FW300-N2E2", "True"),
    ("[Cl][Hg][Cl] [mercury (II) chloride]", "Pseudomonas fluorescens FW300-N2E2", "True"),
    ("[Cl-].[Na+] [Sodium Chloride]", "Pseudomonas fluorescens FW300-N2E2", "False"),
    ("O=P[O-].[Na+] [Sodium hypophosphite monohydrate]", "Pseudomonas fluorescens FW300-N2E2", "False"),
    ("O=C(O)CN(CC(=O)O)CC(=O)O [Nitrilotriacetic acid]", "Pseudomonas fluorescens FW300-N2E2", "True"),
]

Problem: Hi there! Is IC50 growth inhibition for O.[Cl-].[Li+] [Lithium chloride hydrate] below 300 mM, do you know?
Result: False

* * *

Test system: Pseudomonas fluorescens FW300-N2E2
Details: medium / electron acceptor: N2E2 LB/aerobic
PROPERTY LABEL: IC50 growth inhibition

Sample records with IC50 growth inhibition:
# COMPOUND, EXPERIMENTAL TARGET, PROPERTY LABEL, RESULT
data = [
    ("O.O.[Ba+2].[Cl-].[Cl-] [Barium chloride dihydrate]", "Pseudomonas fluorescens FW300-N2E2", "IC50 growth inhibition", "> 5 mM"),
    ("[Cl][Pd][Cl] [Palladium(II) chloride]", "Pseudomonas fluorescens FW300-N2E2", "IC50 growth inhibition", "> 5 mM"),
]

From here, focus on the item given below.
Problem: # query: IC50 growth inhibition of entry O=P([O-])(O)O.[Na+] [Sodium phosphate monobasic monohydrate]
Result: 307 mM

* * *

System: Pseudomonas fluorescens FW300-N2E2
Conditions: medium / electron acceptor: N2E2 Glucose/aerobic 0.25xMinerals
Where a name gives a salt, the structure may show the parent alone.
PROPERTY LABEL: IC50 growth inhibition

# COMPOUND, IC50 growth inhibition
data = [
    ("[Cl][Hg][Cl] [mercury (II) chloride]", "< 2.44 µM"),
    ("O.O=[Te]([O-])[O-].[K+].[K+] [Potassium tellurite hydrate]", "< 2.44 µM"),
    ("O=C(O)C[C@H](NCCN[C@@H](CC(=O)O)C(=O)O)C(=O)O [Ethylenediamine-N,N'-disuccinic acid]", "< 122 µM"),
    ("[Cl][Pd][Cl] [Palladium(II) chloride]", "< 2.44 µM"),
    ("[Cl-].[Cl-].[Sr+2] [Strontium chloride]", "< 244 µM"),
    ("[Cl-].[K+] [Potassium Chloride]", "> 500000 µM"),
    ("[Cl-].[Cl-].[Zn+2] [Zinc chloride]", "< 2.44 µM"),
    ("OP(O)O [Sodium phosphite dibasic pentahydrate]", "< 244 µM"),
]

Problem: IC50 growth inhibition lookup needed for NO [Hydroxylamine hydrochloride] , thanks.
Result: < 244 µM

Problem: Can you share its IC50 growth inhibition? I mean this compound: O=[Se]([O-])[O-].[Na+].[Na+] [Sodium selenite pentahydrate]
Result: < 244 µM

Problem: For the compound [Ce+3].[Cl-].[Cl-].[Cl-] [Cerium(III) chloride] , what IC50 growth inhibition is on record?
Result: < 244 µM

Problem: Fill in: IC50 growth inhibition of [Cl][Fe]([Cl])[Cl] [Ferric chloride] is ___
Result: > 50000 µM

Problem: Given the compound O=[N+]([O-])[O-].[Na+] [Sodium nitrate] , what is its reported IC50 growth inhibition?
Result: > 500000 µM

* * *

System: Pseudomonas fluorescens FW300-N2E2
Conditions: medium / electron acceptor: N2E2 Glucose/aerobic (2)
PROPERTY LABEL: IC50 growth inhibition

Sample records with IC50 growth inhibition:
# MOLECULE, IC50 growth inhibition
records = [
    ("O=C(O)C[C@H](NCCN[C@@H](CC(=O)O)C(=O)O)C(=O)O [Ethylenediamine-N,N'-disuccinic acid]", "< 122000 nM"),
    ("[Cl-].[Cl-].[Sr+2] [Strontium chloride]", "< 244000 nM"),
    ("[Cl][Hg][Cl] [mercury (II) chloride]", "< 2440 nM"),
    ("CC(=O)[O-].[Tl+] [Thallium(I) acetate]", "< 2440 nM"),
]

Problem: Please give the measured IC50 growth inhibition for this molecule: O.O.O.O.O.[Cd+2].[Cd+2].[Cl-].[Cl-].[Cl-].[Cl-] [Cadmium chloride hemipentahydrate]
Result: < 2440 nM

* * *

Test system: Pseudomonas fluorescens FW300-N2E2
Conditions: medium / electron acceptor: N2E2 LB/aerobic
Counter-ions that a name gives are not always drawn.
PROPERTY LABEL: IC50 growth inhibition

# COMPOUND, RESULT
rows = [
    ("[Cl][Pb][Cl] [lead (II) chloride]", "> 5000 µM"),
    ("O=[Si](O)O [Sodium metasilicate]", "< 244 µM"),
    ("NO [Hydroxylamine hydrochloride]", "< 244 µM"),
    ("[K+].[OH-].[OH-].[OH-].[OH-].[OH-].[OH-].[Sb+3] [potassium hexahydroxoantimonate]", "> 5000 µM"),
]

Problem: # IC50 growth inhibition lookup, item O.O=[Te]([O-])[O-].[K+].[K+] [Potassium tellurite hydrate]
Result: < 2.44 µM

Problem: GET /values?readout=IC50 growth inhibition&item= OB1OB2OB(O)OB(O1)O2 [sodium tetraborate decahydrate]
Result: > 5000 µM

* * *

System: Rhodanobacter sp. FW104-10B01
Details: medium / electron acceptor: 10B01 R2A/aerobic
Where a name gives a salt, the structure may show the parent alone.
Property: IC50 growth inhibition; scope: individual molecules
Number only, in mM; omit the unit.

Examples from the recorded data:
# MOLECULE, EXPERIMENTAL TARGET, UNIT ABBREV, IC50 growth inhibition
rows = [
    ("O.O.O.O.O.O.O.O.O.O.O=S(=O)([O-])[O-].[Na+].[Na+] [Sodium sulfate]", "Rhodanobacter sp. FW104-10B01", "mM", 354),
    ("[Cl][Bi]([Cl])[Cl] [bismuth(III) chloride]", "Rhodanobacter sp. FW104-10B01", "mM", 0.00279),
    ("O.O.O.O.O.O.[Cl][Ni][Cl] [Nickel (II) chloride hexahydrate]", "Rhodanobacter sp. FW104-10B01", "mM", 1.03),
    ("O.O.O.O.O.O.[Cl][Cr]([Cl])[Cl] [Chromium(III) Chloride Hexahydrate]", "Rhodanobacter sp. FW104-10B01", "mM", 2.16),
    ("[I-].[Na+] [sodium iodide]", "Rhodanobacter sp. FW104-10B01", "mM", 354),
]

Problem: Returns the measured IC50 growth inhibition for the input molecule. Input: [Ca+2].[Cl-].[Cl-] [Calcium chloride dihydrate]
Result: 354

Problem: Quick one: IC50 growth inhibition for [K+].[K+].[O]=[Cr](=[O])([O-])[O-] [Potassium chromate] ?
Result: 0.123

Problem: Any idea what its IC50 growth inhibition is? The molecule is O=P([O-])(O)O.[Na+] [Sodium phosphate monobasic monohydrate]
Result: 354

Problem: What IC50 growth inhibition value was documented for this molecule, NO [Hydroxylamine hydrochloride] ?
Result: 31.9

Problem: Please report the recorded IC50 growth inhibition for O.O.O.O.O.[Cd+2].[Cd+2].[Cl-].[Cl-].[Cl-].[Cl-] [Cadmium chloride hemipentahydrate] .
Result: 0.11

Problem: I would be grateful if you could share the reported IC50 growth inhibition for O=[Se](=O)([O-])[O-].[Na+].[Na+] [Sodium selenate] .
Result: 251

Problem: Which IC50 growth inhibition is reported for this molecule? O=C(O)C[C@H](NCCN[C@@H](CC(=O)O)C(=O)O)C(=O)O
Result: 1.76

Problem: # get_value(readout='IC50 growth inhibition', item= O.O.O.O.O.O.[Al+3].[Cl-].[Cl-].[Cl-] [Aluminum chloride hydrate] )
Result: 3.54

Problem: Request the reported IC50 growth inhibition associated with [F-].[Na+] [sodium fluoride]
Result: 354

Problem: What measured IC50 growth inhibition goes with [O-][Cl+2]([O-])O [Sodium Chlorate] ?
Result: 355

Problem: Dear colleague, I am looking for the recorded IC50 growth inhibition of the following molecule: [Cl][Pt]([Cl])([Cl])[Cl] [platinum (IV) chloride]
Result: 0.123

Problem: Requested field: IC50 growth inhibition. Item: [O-][Cl+3]([O-])([O-])O [Sodium perchlorate monohydrate]
Result: 354

Problem: Look at this molecule and give its reported IC50 growth inhibition. O=[Se]([O-])[O-].[Na+].[Na+] [Sodium selenite pentahydrate]
Result: 250
